# Assay Procedure: chemical genetic growth profiling, strain panel (AID 1159580);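 note: tested at 20 µM; growth read once vehicle control cultures reached saturation at 30 °C; 1 = growth at the plate median or of vehicle wells; lower values mean less growth of the strain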
# Condition: S. cerevisiae deletion strains, growth OD, locus YLR357W, strain rsc2
The whole screen tested about 5,500 compounds, of which about 2,000 (36%) were called active. About 18% were inconclusive and are not listed. Cut-off read from the data, not from the text of the source: active = normalized growth mostly below about 0.91 (no sharp cut-off); inconclusive = no clear call, values can overlap the other calls; inactive = mostly above about 0.92. The list shows a part of the results.
Outcome codes: yes (1) = active, no (0) = inactive

[
  {
    "Molecule": "CN(C)CCOC(C)(c1ccccc1)c1ccccn1 (stereo not drawn)",
    "Group Label": "no (0)"
  },
  {
    "Molecule": "CC/C(=C(\\c1ccccc1)c1ccc(OCCN(C)C)cc1)c1ccccc1",
    "Group Label": "yes (1)"
  },
  {
    "Molecule": "OC[C@@H](O)[C@@H](O[C@@H]1O[C@H](CO)[C@@H](O)[C@H](O)[C@H]1O)[C@H](O)[C@@H](O)CO",
    "Group Label": "no (0)"
  },
  {
    "Molecule": "C=CC(C)(O)CC/C=C(\\C)CCC=C(C)C (stereo not drawn)",
    "Group Label": "yes (1)"
  },
  {
    "Molecule": "CCN(CC)CCOc1ccc2c(c1)C(=O)c1cc(OCCN(CC)CC)ccc1-2",
    "Group Label": "no (0)"
  },
  {
    "Molecule": "Cc1ccsc1/C=C/C1=NCCCN1C",
    "Group Label": "no (0)"
  },
  {
    "Molecule": "O=C(OC1Cc2c(O)cc(O)cc2OC1c1cc(O)c(O)c(O)c1-c1c(C2Oc3cc(O)cc(O)c3CC2OC(=O)c2cc(O)c(O)c(O)c2)cc(O)c(O)c1O)c1cc(O)c(O)c(O)c1 (stereo not drawn)",
    "Group Label": "yes (1)"
  },
  {
    "Molecule": "CCOC(=O)c1oc2c(OC)c(O)cc(O)c2c(=O)c1-c1cc(OC)c(OC)c(OC)c1",
    "Group Label": "no (0)"
  },
  {
    "Molecule": "C=C(C)[C@H]1CC=C(C(=O)O)CC1",
    "Group Label": "no (0)"
  },
  {
    "Molecule": "C[n+]1cccc(C(=O)[O-])c1",
    "Group Label": "no (0)"
  },
  {
    "Molecule": "O=C(O)C1=CCNCC1",
    "Group Label": "no (0)"
  },
  {
    "Molecule": "C=C(C)C1CC=C(CO)CC1 (stereo not drawn)",
    "Group Label": "no (0)"
  },
  {
    "Molecule": "COc1cc(OC)c2c(=O)c(-c3ccccc3)c(C)oc2c1OC",
    "Group Label": "no (0)"
  },
  {
    "Molecule": "CNC[C@@H](O)c1ccc(O)c(O)c1",
    "Group Label": "no (0)"
  },
  {
    "Molecule": "CCCC(C)C1(CC)C(=O)N=C(S)NC1=O (stereo not drawn)",
    "Group Label": "no (0)"
  },
  {
    "Molecule": "NC[C@H](O)c1ccc(O)c(O)c1",
    "Group Label": "no (0)"
  },
  {
    "Molecule": "C=CCC1(C(C)CCC)C(=O)N=C(S)NC1=O (stereo not drawn)",
    "Group Label": "no (0)"
  },
  {
    "Molecule": "CCN(CC)CCOc1ccc(/C(=C(\\Cl)c2ccccc2)c2ccccc2)cc1",
    "Group Label": "yes (1)"
  }
]
